# System: RPMI-8226 leukemia
# protocol: NCI-60 one-dose screen, 48 h (100 = growth as untreated, 0 = no growth, -100 = all killed)
# test-parameters: 10 µM
# Procedure: Growth inhibition of the RPMI-8226 human tumor cell line is measured as a screen for anti-cancer activity. Cells are grown in 96 well plates and exposed to the test compound for 48 hours. Compounds are tested at a single concentration, which is 10^-5 M for most compounds. The reported endpoint is percent growth (GI% or GIPRCNT), where numbers from 0 - 100% represent growth inhibition, and numbers from -100% - 0 represent cell death. For example, a value of 40 represents 60% growth inhibition. […]
This is part of a sample that, as a whole, favours compounds with a hit. Of some 83,000 tested, about 20% had one in any assay. Active and inactive are the calls of the source. The calls were made as follows: active = growth percent below 10; inactive = the rest.
readout-label: growth

Before answering, review these 4 worked examples.
molecule	growth
Nc1ncncc1-c1ccc(F)cc1	109% (inactive)
COc1ccc(-n2nnc3c(sc4ccccc43)c2=O)cc1	72% (inactive)
CCC1(C)OC(=O)NC1=O (stereo unspecified)	96.6% (inactive)
Cc1ccccc1[P+](Cc1ccccc1)(c1ccccc1)c1ccccc1	-27% (active)

Quick request: growth for each listed item, please.
1. COc1ccc(/C=C2\CCC3C(CCCC34OCCO4)C2=O)cc1 (stereo unspecified)
2. O=C(COCc1c(-c2ccccc2)no[n+]1[O-])Nc1nc(-c2ccc(Cl)cc2)cs1
3. O=C(Nc1cccc(C(F)(F)F)c1)C(Cl)Cl
4. Cc1nc(Nc2nc3ccccc3o2)nc(-c2cccc([N+](=O)[O-])c2)c1C(=O)Nc1ccc(F)c(Cl)c1
5. CCc1ccc(-c2nnc(COc3ccc(-c4nc5cc(Cl)c(Cl)cc5[nH]4)cc3OC)o2)cc1
6. CC(C)C[C@H](NC(=O)Cn1ccc2ccccc2c1=O)B(O)O

["81.2% (inactive)", "109% (inactive)", "98.5% (inactive)", "-41.4% (active)", "56.9% (inactive)", "11.9% (inactive)"]

Quick request: growth for each listed item, please.
1. CC1(C)CCc2cc(-c3ccn(S(=O)(=O)c4ccc(Cl)cc4)n3)ccc2O1
2. C[C@]12CC[C@H]3[C@@H](CC=C4C[C@@H](O)CC[C@@]43C)[C@@H]1CC[C@@H]2C(=O)C/C=N/O
3. CC(C)C(C)C(N)C(=O)O (stereo unspecified)
4. NC1CCC(Nc2nc(NCc3ccc(-c4ccco4)nc3)c3ncn(C4CCCC4)c3n2)CC1 (stereo unspecified)
5. CN(C)c1ccc2c(c1)OC(N)=C(C#N)C2c1ccc2c(c1)CCO2 (stereo unspecified)
6. Brc1ccc(-c2cn3ccnc3c(-c3ccc(Br)cc3)n2)cc1

1: 52.1% (inactive); 2: 59.6% (inactive); 3: 99.6% (inactive); 4: -18.3% (active); 5: 32.9% (inactive); 6: 58.3% (inactive)

Quick request: growth for each listed item, please.
1. COc1cc(/C=C/C(=O)c2cc(-c3ccc(C(F)(F)F)cc3)ccc2O)cc(OC)c1OC
2. Cc1nc(N)sc1Sc1nc2ccc(Cl)cc2c(=O)n1-c1ccc(Oc2ccccc2)cc1
3. CCCCCC(=O)N1c2ccccc2NC2=C(C(=O)CC(c3ccc(OC)c(OC)c3)C2)C1c1ccc(C(F)(F)F)cc1 (stereo unspecified)
4. COc1ccc(-c2nnc(COc3ccc(NC(=O)Nc4cccc(C(F)(F)F)c4)cc3F)o2)cc1
5. Cc1ccc(Cl)cc1Nc1nc(C(F)(F)F)ccc1C(=O)N/N=C/c1c(Cl)cccc1Cl
6. COc1cccc2c1O/C(=C\c1ccc([N+](=O)[O-])s1)C2=O
7. C/C(=N\NC(=O)c1sc(=S)n(C)c1N)c1cc2ccccc2o1
8. Cc1cc(C)c2c(Nc3ncnc4c3sc3nc(C)cc(C)c34)n[nH]c2n1

1: -9.06% (active); 2: 68.1% (inactive); 3: 21.6% (inactive); 4: 33.6% (inactive); 5: -51.2% (active); 6: 25.7% (inactive); 7: 42.5% (inactive); 8: 98.9% (inactive)

Quick request: growth for each listed item, please.
1. COc1cccc(C(=O)NNc2nc(N3CCN(C4CCCCC4)CC3)nc(N3CCN(C(c4ccccc4)c4ccccc4)CC3)n2)c1
2. CCCCNC(=O)Oc1ccc(/C(=C(\C)c2ccc(OC)cc2)c2ccc(OCCN3CCCCC3)cc2)cc1

1. -11.5% (active)
2. 29% (inactive)

The measured values listed here are drawn from PubChem BioAssay (NCI).
